# experimental-protocol: protein stability index of a GFP-peptide fusion (yeast GPS) (PSI 1-4); higher = more stable; sorted into four equal gates, so the index is relative within each strain
# assay-conditions: san1∆
Provide the reported protein stability index of each item.
Simply state the number, no unit and no words.

Input LQVADKFFRVKYENKIS [SMC3] . Output protein stability index: 1.67

Input CGFWQPAWRVWLNFLRG [PRP8] . Output protein stability index: 1.62

Input GEIQLLFQRQKLHEFYL [IRR1] . Output protein stability index: 2.63

Input DLAERASELDESKDSIQ [SMC3] . Output protein stability index: 2.83

Input HKTMSIVGVLQDDADPM [RPT2] . Output protein stability index: 1.58

Input MSSVQSKILSQAPSELE [RPS7B] . Output protein stability index: 2.61

Input PSFMLKHHQLFYMLNAG [RPN1] . Output protein stability index: 1.18

Input YLIDHIKVDGAVGNLGN [RPL22B] . Output protein stability index: 2.53

Input LIQSTEFPSITSSVILG [YOR098C/NUP1] . Output protein stability index: 2.11

Input HTQANEPNSAKKIRFLQ [RGR1] . Output protein stability index: 3.12

Input CILRFLQLPIEDKFLYG [SWI3] . Output protein stability index: 1.18

Input QAEATEWAEENADNVEW [RPS0A] . Output protein stability index: 2.27

Input CVRVQLIKNGKKVTAFV [RPS23A] . Output protein stability index: 3.16

* * *

# experimental-protocol: protein stability index of a GFP-peptide fusion (yeast GPS) (PSI 1-4); higher = more stable; sorted into four equal gates, so the index is relative within each strain
# assay-conditions: pdr5∆
Use rule met when the recorded protein stability index is no lower than 2; use rule not met when it is lower.

Query :: Entry KGDRALLVKLSKRLPLR [BRR2] : is its protein stability index no less than 2?
Result :: rule met

Query :: Entry NNNGLPQNGNINNNINI [GAL11] : is its protein stability index no less than 2?
Result :: rule met

Query :: Entry MASYMLNSFAFELCSLG [YJR042W/NUP85] : is its protein stability index no less than 2?
Result :: rule not met

Query :: Entry SERDSKDRYINGDKKVD [YMR129W/POM152] : is its protein stability index no less than 2?
Result :: rule met

Query :: Entry SNEICDLAYQYVRALEL [SRB2] : is its protein stability index no less than 2?
Result :: rule met

Query :: Entry FEKVGSHLYKARLDGHD [RPN14] : is its protein stability index no less than 2?
Result :: rule met

Query :: Entry PELGDKFSSRHGQKGVC [RET1] : is its protein stability index no less than 2?
Result :: rule met

Query :: Entry NIIESIANFSRAGKYEL [YJR042W/NUP85] : is its protein stability index no less than 2?
Result :: rule met

Query :: Entry GNVFSPIDNNIIFASTK [SNU114] : is its protein stability index no less than 2?
Result :: rule met

Query :: Entry EAQANLLTAKHGMTLRE [RPO21] : is its protein stability index no less than 2?
Result :: rule met

Query :: Entry RTQPWSIMPDLYFYRDP [RPS0A] : is its protein stability index no less than 2?
Result :: rule met

Query :: Entry AQQVPPYGVYHPPFIKY [SIN4] : is its protein stability index no less than 2?
Result :: rule not met

Query :: Entry RAVANRTDATFIRVIGS [RPT1] : is its protein stability index no less than 2?
Result :: rule met

Query :: Entry MSNIVGIEYNRVTNTTS [RPC40] : is its protein stability index no less than 2?
Result :: rule met

Query :: Entry LSIQYMIQKVMEYLKSS [RPN5] : is its protein stability index no less than 2?
Result :: rule not met

Query :: Entry KETTIEKLSSEIENLDK [YIL149C/MLP2] : is its protein stability index no less than 2?
Result :: rule met

Query :: Entry SFGNREEFINKLVKAMN [RPL7B] : is its protein stability index no less than 2?
Result :: rule not met

Query :: Entry TPNTNSNSTPNANQQFL [SWI1] : is its protein stability index no less than 2?
Result :: rule met

Query :: Entry FASIPVSNSISRLGEEN [SNU114] : is its protein stability index no less than 2?
Result :: rule met

Query :: Entry KNVKHSGNIQLDEIIEI [RPL12A] : is its protein stability index no less than 2?
Result :: rule met

Query :: Entry SNSAGTSLFGSSSAQQT [YJL041W/NSP1] : is its protein stability index no less than 2?
Result :: rule met

Query :: Entry PAGHAGNPTNISSPIVA [YDL088C/ASM4] : is its protein stability index no less than 2?
Result :: rule met

Query :: Entry LNYTVINFKSREAIRPG [AAR2] : is its protein stability index no less than 2?
Result :: rule met

Query :: Entry KNDNIKKSVNKLDKQIN [POP6] : is its protein stability index no less than 2?
Result :: rule met

Query :: Entry NRSEQNGQEQQGPVKNT [RGR1] : is its protein stability index no less than 2?
Result :: rule met

Query :: Entry LYQSLTPQQLQMIQQRH [SNF5] : is its protein stability index no less than 2?
Result :: rule met

Query :: Entry NSIKNVPPILIILPLDN [SSN2] : is its protein stability index no less than 2?
Result :: rule not met

Query :: Entry DSTSHNNGSSDKSLDSS [MED1] : is its protein stability index no less than 2?
Result :: rule met

Query :: Entry NSLKETLQDFHLIFSNA [SNF2] : is its protein stability index no less than 2?
Result :: rule met

Query :: Entry LPFQRLVREIAQDFKTD [HHT1] : is its protein stability index no less than 2?
Result :: rule met

Query :: Entry VQKSTKTFSYKRPSTFY [RPL20A] : is its protein stability index no less than 2?
Result :: rule met

Query :: Entry NAEKTGKRQVLIRPSSK [RPS22A] : is its protein stability index no less than 2?
Result :: rule met

Query :: Entry MMQDPQMQQMAKQFGMG [SRP54] : is its protein stability index no less than 2?
Result :: rule met

Query :: Entry QLFHSMSIVFGDKFSED [UBP6] : is its protein stability index no less than 2?
Result :: rule not met

Query :: Entry SKAQQKTAEQVAAERAA [RPL7A] : is its protein stability index no less than 2?
Result :: rule met

Query :: Entry PKNFGIGQAVQPKRNLS [RPL8A] : is its protein stability index no less than 2?
Result :: rule met

Query :: Entry ASITPYKLVNKNKENNT [RPN4] : is its protein stability index no less than 2?
Result :: rule met

Query :: Entry ALLNFVLPKIFNSVKSF [SNF2] : is its protein stability index no less than 2?
Result :: rule not met

Query :: Entry FPESIWKDFTVEIAFLF [YCG1] : is its protein stability index no less than 2?
Result :: rule met

Query :: Entry GCVNSLISGPRNQILVS [YMR129W/POM152] : is its protein stability index no less than 2?
Result :: rule not met

Query :: Entry SYLISHKDSFYDRATLT [RPO31] : is its protein stability index no less than 2?
Result :: rule met

Query :: Entry KGSRFISTLQVKLYGRE [RPB2] : is its protein stability index no less than 2?
Result :: rule met

Query :: Entry VSNPGDNPPPADNGEEY [MED2] : is its protein stability index no less than 2?
Result :: rule met

Query :: Entry AILQKSLKNVTEKNREI [YIL149C/MLP2] : is its protein stability index no less than 2?
Result :: rule met

Query :: Entry KIEGCISQVSSIHAIGS [RPB7] : is its protein stability index no less than 2?
Result :: rule met

Query :: Entry ICIVGGYDDFQEEGSFE [FAS2] : is its protein stability index no less than 2?
Result :: rule met

Query :: Entry LQDEVMNIKPVQKQTRA [RPS2] : is its protein stability index no less than 2?
Result :: rule met

Query :: Entry NERRKDLAERASELDES [SMC3] : is its protein stability index no less than 2?
Result :: rule met

Query :: Entry DLVHIKDSLDNTFVTRL [RPS4A] : is its protein stability index no less than 2?
Result :: rule met

Query :: Entry REAIRPGHEMEDFLDKS [AAR2] : is its protein stability index no less than 2?
Result :: rule met

Query :: Entry SGMGPDYRVLVDKSRKV [PRE8] : is its protein stability index no less than 2?
Result :: rule met

* * *

# experimental-protocol: protein stability index of a GFP-peptide fusion (yeast GPS) (PSI 1-4); higher = more stable; sorted into four equal gates, so the index is relative within each strain
# assay-conditions: pdr5∆
Categorized via protein stability index: bin 1 (below 2), bin 2 (2 to below 3), bin 3 (3 or more)

Query :: Sort AADNLGSYGSLLRFNGV [PRE4] into one of the categories.
Result :: bin 3

Query :: Sort FVNGVWHGVHRNPARLM [RPB2] into one of the categories.
Result :: bin 1

Query :: Sort GDQFLRYVNLLGVTYSS [PRE4] into one of the categories.
Result :: bin 2

Query :: Sort QKRLEAGALNLASPEVK [DIS3] into one of the categories.
Result :: bin 2

Query :: Sort GEQIIVHPVNEREPVPL [RRP45] into one of the categories.
Result :: bin 3

Query :: Sort AGIPIGLKRSQLDEFKN [SWP82] into one of the categories.
Result :: bin 2

Query :: Sort LKNMLYVLSTAVEFESV [BRR2] into one of the categories.
Result :: bin 1

Query :: Sort IEIKISDPLTVFSESCS [SNU114] into one of the categories.
Result :: bin 2

Query :: Sort EVNKSELYLTAELSEIW [SIR3] into one of the categories.
Result :: bin 2

Query :: Sort TIISPHKDIPEEDFYTV [DSN1] into one of the categories.
Result :: bin 3

Query :: Sort VVYHPSNNELVRTNTLT [RPS8A] into one of the categories.
Result :: bin 2

Query :: Sort NNNSSNEKEQLSFINPK [SEC65] into one of the categories.
Result :: bin 3

Query :: Sort RGEIREIEQVCKQVHDK [MED7] into one of the categories.
Result :: bin 3

Query :: Sort LEEHKNHLDELQKKFVT [SMC1] into one of the categories.
Result :: bin 2

Query :: Sort DDDLFETLVLSYFSPIN [YCG1] into one of the categories.
Result :: bin 1
